# target-or-system: human CB2 receptor (hCB2) (Homo sapiens)
# Construct: host or cells: CHO-K1
# Sequence (P34972 whole entry): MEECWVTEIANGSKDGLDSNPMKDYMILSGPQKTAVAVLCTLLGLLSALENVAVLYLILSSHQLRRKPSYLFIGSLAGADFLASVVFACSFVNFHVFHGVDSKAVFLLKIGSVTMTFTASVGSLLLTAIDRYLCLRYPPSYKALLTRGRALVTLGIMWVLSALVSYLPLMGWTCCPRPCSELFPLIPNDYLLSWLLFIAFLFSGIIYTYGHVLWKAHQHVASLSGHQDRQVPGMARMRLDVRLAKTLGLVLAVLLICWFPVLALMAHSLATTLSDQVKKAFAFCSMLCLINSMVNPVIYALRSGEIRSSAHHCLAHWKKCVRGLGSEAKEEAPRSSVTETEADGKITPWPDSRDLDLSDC
# experimental-details: cAMP assay (LANCE TR-FRET) in CHO-K1 cells stably expressing hCB2
# Format: cell-based
pEC50: −log10 of the molar value.
Provide the recorded pEC50 for the entries that follow.

[Q] What does the record list as pEC50 for "CNC(=O)[C@@H](NC(=O)c1nc(-c2ccccc2)n2c1CCCCC2)C(C)(C)C" ?
[A] 8.00 to 10.00

[Q] What does the record list as pEC50 for "CNC(=O)[C@@H](NC(=O)c1nc(-c2ccccc2)n2c1CCN(C(C)=O)CC2)C(C)(C)C" ?
[A] < 5.00

[Q] What does the record list as pEC50 for "O=C(N[C@@H]1c2ccccc2C[C@@H]1O)c1nc(-c2ccc(F)c(F)c2)n2c1CCCCC2" ?
[A] 7.00 to 8.00

[Q] What does the record list as pEC50 for "CC(C)(C)[C@H](NC(=O)c1nc(-c2ccc(F)c(F)c2)n2c1COCCC2)C(=O)NCCO" ?
[A] 7.00 to 8.00

[Q] What does the record list as pEC50 for "CNC(=O)[C@@H](NC(=O)c1nc(-c2ccccc2)n2c1CCN(CC1CC1)CC2)C(C)(C)C" ?
[A] < 5.00

[Q] What does the record list as pEC50 for "CC(C)(C)[C@H](NC(=O)c1nc(-c2ccccc2)n2c1CCCCC2)C(=O)NCCF" ?
[A] 8.00 to 10.00

[Q] What does the record list as pEC50 for "CNC(=O)[C@@H](NC(=O)c1nc(-c2ccc(Cl)cc2F)n2c1COCCC2)C(C)(C)C" ?
[A] 8.00 to 10.00
